Origin of measurements: patent US20030114445A1

# Measurement target: B.subtilis pol IIIC (Bacillus subtilis, UniProt P13267)
# Sequence (P13267 whole entry): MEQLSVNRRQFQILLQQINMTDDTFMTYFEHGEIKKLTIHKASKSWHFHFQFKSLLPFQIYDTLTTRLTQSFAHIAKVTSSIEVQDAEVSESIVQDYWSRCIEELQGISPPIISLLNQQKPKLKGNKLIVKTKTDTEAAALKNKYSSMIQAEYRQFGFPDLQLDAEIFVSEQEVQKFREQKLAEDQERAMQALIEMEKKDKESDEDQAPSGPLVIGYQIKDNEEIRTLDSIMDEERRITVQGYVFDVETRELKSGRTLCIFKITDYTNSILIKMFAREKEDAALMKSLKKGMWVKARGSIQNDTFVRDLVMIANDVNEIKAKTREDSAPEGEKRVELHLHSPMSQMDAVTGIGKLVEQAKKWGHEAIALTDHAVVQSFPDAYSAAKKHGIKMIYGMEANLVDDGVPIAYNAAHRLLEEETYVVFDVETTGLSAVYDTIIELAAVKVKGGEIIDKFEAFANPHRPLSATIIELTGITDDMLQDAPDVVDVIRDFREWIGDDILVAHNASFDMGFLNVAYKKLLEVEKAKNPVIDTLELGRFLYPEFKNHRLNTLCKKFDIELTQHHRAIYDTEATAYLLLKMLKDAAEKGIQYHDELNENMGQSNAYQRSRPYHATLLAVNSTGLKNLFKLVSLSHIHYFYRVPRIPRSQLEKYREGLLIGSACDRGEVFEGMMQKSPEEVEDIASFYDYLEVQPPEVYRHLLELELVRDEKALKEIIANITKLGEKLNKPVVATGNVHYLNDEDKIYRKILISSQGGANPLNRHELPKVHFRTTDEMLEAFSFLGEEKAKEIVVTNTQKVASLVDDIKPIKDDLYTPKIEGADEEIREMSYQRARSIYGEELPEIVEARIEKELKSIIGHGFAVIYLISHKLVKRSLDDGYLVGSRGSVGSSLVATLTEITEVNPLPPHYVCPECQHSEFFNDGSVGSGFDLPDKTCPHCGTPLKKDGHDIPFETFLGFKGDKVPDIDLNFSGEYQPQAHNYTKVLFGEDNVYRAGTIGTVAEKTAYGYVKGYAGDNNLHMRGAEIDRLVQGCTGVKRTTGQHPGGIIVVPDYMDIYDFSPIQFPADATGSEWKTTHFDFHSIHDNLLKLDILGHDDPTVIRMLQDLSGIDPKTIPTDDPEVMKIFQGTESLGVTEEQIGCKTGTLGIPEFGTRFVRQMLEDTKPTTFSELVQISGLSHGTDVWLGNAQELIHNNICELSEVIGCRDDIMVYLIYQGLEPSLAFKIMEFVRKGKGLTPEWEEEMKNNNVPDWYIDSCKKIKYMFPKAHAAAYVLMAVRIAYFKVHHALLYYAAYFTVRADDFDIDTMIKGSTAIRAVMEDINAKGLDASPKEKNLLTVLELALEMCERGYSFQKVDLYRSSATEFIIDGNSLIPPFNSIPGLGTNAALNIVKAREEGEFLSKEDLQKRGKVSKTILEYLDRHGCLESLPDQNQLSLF
# Assay procedure: biochemical
Listed here are molecules together with their documented Ki.
// return numeric value only (unit: nM, not printed)

[
  {
    "Molecule": "CCc1cc(Nc2cc(=O)n(CCN3CCN(C(=O)c4ccccc4)CC3)c(=O)[nH]2)ccc1C",
    "Measurement target": "B.subtilis pol IIIC (Bacillus subtilis, UniProt P13267)",
    "Ki (nM)": 77
  },
  {
    "Molecule": "CCc1cc(Nc2cc(=O)n(CC(C)=O)c(=O)[nH]2)ccc1C",
    "Measurement target": "B.subtilis pol IIIC (Bacillus subtilis, UniProt P13267)",
    "Ki (nM)": 303
  },
  {
    "Molecule": "CCc1cc(Nc2cc(=O)n(CCCCC#N)c(=O)[nH]2)ccc1C",
    "Measurement target": "B.subtilis pol IIIC (Bacillus subtilis, UniProt P13267)",
    "Ki (nM)": 94
  },
  {
    "Molecule": "CCc1cc(Nc2cc(=O)n(CCOCCOCCO)c(=O)[nH]2)ccc1C",
    "Measurement target": "B.subtilis pol IIIC (Bacillus subtilis, UniProt P13267)",
    "Ki (nM)": 87
  },
  {
    "Molecule": "CCc1cc(Nc2cc(=O)n(CCOCCOCc3ccccc3)c(=O)[nH]2)ccc1C",
    "Measurement target": "B.subtilis pol IIIC (Bacillus subtilis, UniProt P13267)",
    "Ki (nM)": 56
  },
  {
    "Molecule": "CCc1cc(Nc2cc(=O)n(CCCCCNC(=O)c3cccs3)c(=O)[nH]2)ccc1C",
    "Measurement target": "B.subtilis pol IIIC (Bacillus subtilis, UniProt P13267)",
    "Ki (nM)": 65
  },
  {
    "Molecule": "CCc1cc(Nc2cc(=O)n(CCCCN3CCN(c4ccc(C(F)(F)F)cc4[N+](=O)[O-])CC3)c(=O)[nH]2)ccc1C",
    "Measurement target": "B.subtilis pol IIIC (Bacillus subtilis, UniProt P13267)",
    "Ki (nM)": 58800
  },
  {
    "Molecule": "CCCCC1(O)CCN(CCCCCn2c(=O)cc(Nc3ccc(C)c(CC)c3)[nH]c2=O)CC1",
    "Measurement target": "B.subtilis pol IIIC (Bacillus subtilis, UniProt P13267)",
    "Ki (nM)": 2100
  },
  {
    "Molecule": "CCc1cc(Nc2cc(=O)n(CCN(CC)CC)c(=O)[nH]2)ccc1C",
    "Measurement target": "B.subtilis pol IIIC (Bacillus subtilis, UniProt P13267)",
    "Ki (nM)": 530
  },
  {
    "Molecule": "CCc1cc(Nc2cc(=O)n(CCCCN3CCN(Cc4ccccc4)CC3)c(=O)[nH]2)ccc1C",
    "Measurement target": "B.subtilis pol IIIC (Bacillus subtilis, UniProt P13267)",
    "Ki (nM)": 34
  }
]

Query: Given CCc1cc(Nc2cc(=O)n(CCCCNC(=O)C3CC3)c(=O)[nH]2)ccc1C , respond with its Ki.
Response: 82

Query: Given CCc1cc(Nc2cc(=O)n(CC#CCO)c(=O)[nH]2)ccc1C , respond with its Ki.
Response: 68

Query: Given CCc1cc(Nc2cc(=O)n(CCOCCO)c(=O)[nH]2)ccc1C , respond with its Ki.
Response: 125

Query: Given CCc1cc(Nc2cc(=O)n(CCCCCCO)c(=O)[nH]2)ccc1C , respond with its Ki.
Response: 49
